All values here come from ChEMBL document CHEMBL1130634.

assayedTarget: 3',5'-cyclic-AMP phosphodiesterase 4A (Homo sapiens)
Sequence (P27815 whole entry): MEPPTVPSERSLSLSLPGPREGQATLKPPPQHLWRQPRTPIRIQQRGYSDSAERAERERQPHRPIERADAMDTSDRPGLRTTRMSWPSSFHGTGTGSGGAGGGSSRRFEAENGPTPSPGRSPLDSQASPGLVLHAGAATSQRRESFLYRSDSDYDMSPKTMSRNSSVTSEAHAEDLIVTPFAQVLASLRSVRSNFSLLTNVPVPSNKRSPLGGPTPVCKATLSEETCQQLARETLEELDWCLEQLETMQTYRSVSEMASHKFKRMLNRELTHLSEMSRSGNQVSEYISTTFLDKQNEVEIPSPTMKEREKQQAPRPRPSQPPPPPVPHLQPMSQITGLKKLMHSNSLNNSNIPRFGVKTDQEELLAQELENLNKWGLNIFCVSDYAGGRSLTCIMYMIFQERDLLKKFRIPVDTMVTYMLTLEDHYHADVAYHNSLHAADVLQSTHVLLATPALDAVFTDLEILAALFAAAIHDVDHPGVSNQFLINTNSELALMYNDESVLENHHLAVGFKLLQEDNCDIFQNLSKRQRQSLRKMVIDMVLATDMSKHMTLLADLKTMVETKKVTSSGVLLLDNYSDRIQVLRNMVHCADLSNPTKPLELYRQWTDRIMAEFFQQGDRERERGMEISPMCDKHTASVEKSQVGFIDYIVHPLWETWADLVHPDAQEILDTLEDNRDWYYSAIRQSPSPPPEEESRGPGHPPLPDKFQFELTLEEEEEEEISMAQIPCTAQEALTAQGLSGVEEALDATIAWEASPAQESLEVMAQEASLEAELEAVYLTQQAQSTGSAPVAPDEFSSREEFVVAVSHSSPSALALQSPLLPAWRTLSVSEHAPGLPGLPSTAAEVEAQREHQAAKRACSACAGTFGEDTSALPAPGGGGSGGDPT
assayProtocol: Evaluated for its ability to inhibit PDE4A.
valueKind: pIC50
// pIC50 is dimensionless: -log10 of concentration (M)

Here's what some known entries look like.
# inputSmiles, pIC50
measured = [
    ("COc1cc2nc(C)nc(-c3cc(OC(C)C)cc(OC(C)C)c3)c2cc1OC", 5.64),
    ("COc1cc2c(-c3cc(OCC4CC4)cc(OCC4CC4)c3)nc(OCCO)nc2cc1OCCO", 7.15),
    ("CCc1nc(-c2cc(OCC3CC3)cc(OCC3CC3)c2)c2cc(OC)c(OCC3CC3)cc2n1", 5.54),
    ("CCc1nc(-c2cc(OCC3CC3)cc(OCC3CC3)c2)c2cc(OC)c(O)cc2n1", 5.48),
]

-- ask Under 3',5'-cyclic-AMP phosphodiesterase 4A (Homo sapiens): pIC50 value of COc1cc2c(-c3cc(OCC4CC4)cc(OCC4CC4)c3)nc(NCCCO)nc2cc1OCCO ?
-- reply 6.30

-- ask Give 3',5'-cyclic-AMP phosphodiesterase 4A (Homo sapiens) pIC50 for CCOc1nc(-c2cc(OCC3CC3)cc(OCC3CC3)c2)c2cc(OC)c(OCCO)cc2n1
-- reply 7.07
